Origin of the recorded values: patent US20130230533A1

Inhibition of IFN-gamma Release IC50; Donor 2 listing for selected binders.
- ASSAY SYSTEM: T1, human CD48 (on primary human peripheral blood mononuclear cells) (human, UniProt P09326 27-220)
- T1 sequence: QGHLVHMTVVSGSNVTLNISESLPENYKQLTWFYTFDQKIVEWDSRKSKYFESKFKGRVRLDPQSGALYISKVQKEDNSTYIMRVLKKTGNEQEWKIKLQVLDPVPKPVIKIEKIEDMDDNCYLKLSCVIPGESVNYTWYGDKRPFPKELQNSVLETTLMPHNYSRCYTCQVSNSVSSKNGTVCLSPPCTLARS
- MEASUREMENT PROTOCOL: cell-based or functional assay
Only the number, expressed in Molar, is required.

BINDER	UNIT SYMBOL	MEASURED NUMBER
H2M1707N (antibody, V domains shown, Human variable domains, mouse IgG2 Fc (H2M)) VH: EGQLLESGGGLAQPGGSLRLSCAASGITFGRYAMSWVRQAPGKGLEWVSLISGSGGSTYHADSVKGRFTISRDNSKNTLYLQMNSLRAEDTAVYYCAIYNNYNWFDPWGQGTLVTVSS VL: EIVLTQSPGTLSLSPGERATLSCRASQSVSSNYLAWYQQKPGQAPRLLIYDASSRATDIPDRFSGSGSGTDFTLTISRLEPEDFAVYYCQQYGSSPRTFGQGTKVEIK	Molar	3e-11
H2M1713N (antibody, mouse IgG2, V domains shown, Human variable domains, mouse IgG2 Fc (H2M)) VH: QVQLVQSGAEVKKPGASVKVSCKASGHTFTNYYIHWVRQAPGQGLEWMGITNPNDGNTRYAQKFQGRISMTWDTSTSTVFMELSSLKSEDTAVYYCAGLRYWFFDLWGRGTPVTVSS VL: DIQMTQSPSSVSASVGDRVTITCRASQDISSWLAWYQQKPGKAPNLLIFAASSLQSGVPSRFSGSGSGTDFTLTISSLQPEDFGTYYCQQTDNFPRTFGQGTKVEIN	Molar	7.6e-11
H2M1811N (antibody, mouse IgG2, V domains shown, Human variable domains, mouse IgG2 Fc (H2M)) VH: QVQLVQSGAEAREPGASVRVSCKASGYTFTDYFIHWVRQAPGQGLEWMGWINPNSGATNFAQKFQGRVTMTRDTSLITAYMDLSRLKSDDAAVFYCARDVDGSGWYLDFWGQGTLVTVSS VL: EIVLTQSPATLSLSPGERATLSCRASQSVSIYLAWYQQKPGQAPRLLIYDASNRATGIPARFSGSGSGTDFTLTISRLEPEDFAVYYCQQRSDWPPSITFGQGTRLEIK	Molar	4.6e-10

Could you now consider this next binder?
Looking up H2M1763N (antibody, mouse IgG2, V domains shown, Human variable domains, mouse IgG2 Fc (H2M)) VH: QIQLVQSGAEMKRPGTSVKVSCKASGYTFTSYGINWVRQAPGQGLEWMGWISAYNGDTNYAQKLQGRVTMTTDTSTTTAYMEVRSLRSDDTAVYYCARFLTGTKDYYYGMDVWGQGTTVTVSS VL: DIQMTQSPSSLSASVGDRVTITCQASQDISNFLNWYQQKPGKAPDLLINDASILETGVPSRFSGSGSGTDFTLTINNLQPEDIATYYCQQYDNLPLTFGGGTKVEIK , I found its Inhibition of IFN-gamma Release IC50; Donor 2 recorded as 3.4e-11
